Biological target: GST-NbGlk1(82-244) (Nicotiana benthamiana)
Chain: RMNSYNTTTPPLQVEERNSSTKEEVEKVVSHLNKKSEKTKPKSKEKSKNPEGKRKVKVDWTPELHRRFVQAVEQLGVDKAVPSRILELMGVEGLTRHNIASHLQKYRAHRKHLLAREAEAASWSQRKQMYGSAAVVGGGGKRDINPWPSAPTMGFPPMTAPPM
Test: protein-binding microarray; NbGlk1 is a Golden2-like transcription factor of Nicotiana benthamiana; high values mean tight binding
Details: protein: recombinant; tags: GST (pTH6838); dsDNA, one strand shown
Whole data set: some 16,000 sequences, median “e-score” near -0.044, cut for the highest 2% near 0.38. The sample holds the highest values, similar sequences and a random draw of the others, so the mix is not that of the screen.
For each entry below, report its binding signal value.

q: Provide one value: measured binding signal of CAAATTCG
a: 0.213 E-score

q: Provide one value: measured binding signal of CACGTATC
a: 0.216 E-score

q: Provide one value: measured binding signal of ATATCCGA
a: 0.402 E-score

q: Provide one value: measured binding signal of ATCTTCAA
a: 0.303 E-score

q: Provide one value: measured binding signal of ATCGAGAT
a: 0.327 E-score

q: Provide one value: measured binding signal of ATCCTTTA
a: 0.274 E-score

q: Provide one value: measured binding signal of ATCCAGAA
a: 0.288 E-score

q: Provide one value: measured binding signal of AGCGATCG
a: 0.204 E-score

q: Provide one value: measured binding signal of AGATCCGC
a: 0.34 E-score

q: Provide one value: measured binding signal of ATATCCCG
a: 0.317 E-score

q: Provide one value: measured binding signal of ATCTTGGG
a: 0.216 E-score

q: Provide one value: measured binding signal of ATATCCGC
a: 0.411 E-score

q: Provide one value: measured binding signal of ATCCGGTG
a: 0.295 E-score

q: Provide one value: measured binding signal of ATCTCAAG
a: 0.256 E-score

q: Provide one value: measured binding signal of AATTTGCG
a: 0.223 E-score

q: Provide one value: measured binding signal of AGATCCGA
a: 0.307 E-score

q: Provide one value: measured binding signal of ATCTCCGC
a: 0.293 E-score

q: Provide one value: measured binding signal of ATATTTTA
a: 0.311 E-score

q: Provide one value: measured binding signal of CAGATTCG
a: 0.438 E-score

q: Provide one value: measured binding signal of ATTCGCTG
a: 0.298 E-score

q: Provide one value: measured binding signal of ATTTCCGG
a: 0.295 E-score

q: Provide one value: measured binding signal of CAGATTCA
a: 0.293 E-score

Origin of measurements: paper PMC5836133
